The following compounds are shown together with reported inhibition at 0.25 µM values.
molecular target: N-type calcium channel (Homo sapiens); experiment: Automated Electrophysiology Assay (QPatch-HT whole-cell patch clamp; low- and high-frequency stimulation); format: cell-based; settings: low frequency; 0.25 μM; read-out: QPatch at Low Frequency % Inhibition
Sequence (Q00975 whole entry): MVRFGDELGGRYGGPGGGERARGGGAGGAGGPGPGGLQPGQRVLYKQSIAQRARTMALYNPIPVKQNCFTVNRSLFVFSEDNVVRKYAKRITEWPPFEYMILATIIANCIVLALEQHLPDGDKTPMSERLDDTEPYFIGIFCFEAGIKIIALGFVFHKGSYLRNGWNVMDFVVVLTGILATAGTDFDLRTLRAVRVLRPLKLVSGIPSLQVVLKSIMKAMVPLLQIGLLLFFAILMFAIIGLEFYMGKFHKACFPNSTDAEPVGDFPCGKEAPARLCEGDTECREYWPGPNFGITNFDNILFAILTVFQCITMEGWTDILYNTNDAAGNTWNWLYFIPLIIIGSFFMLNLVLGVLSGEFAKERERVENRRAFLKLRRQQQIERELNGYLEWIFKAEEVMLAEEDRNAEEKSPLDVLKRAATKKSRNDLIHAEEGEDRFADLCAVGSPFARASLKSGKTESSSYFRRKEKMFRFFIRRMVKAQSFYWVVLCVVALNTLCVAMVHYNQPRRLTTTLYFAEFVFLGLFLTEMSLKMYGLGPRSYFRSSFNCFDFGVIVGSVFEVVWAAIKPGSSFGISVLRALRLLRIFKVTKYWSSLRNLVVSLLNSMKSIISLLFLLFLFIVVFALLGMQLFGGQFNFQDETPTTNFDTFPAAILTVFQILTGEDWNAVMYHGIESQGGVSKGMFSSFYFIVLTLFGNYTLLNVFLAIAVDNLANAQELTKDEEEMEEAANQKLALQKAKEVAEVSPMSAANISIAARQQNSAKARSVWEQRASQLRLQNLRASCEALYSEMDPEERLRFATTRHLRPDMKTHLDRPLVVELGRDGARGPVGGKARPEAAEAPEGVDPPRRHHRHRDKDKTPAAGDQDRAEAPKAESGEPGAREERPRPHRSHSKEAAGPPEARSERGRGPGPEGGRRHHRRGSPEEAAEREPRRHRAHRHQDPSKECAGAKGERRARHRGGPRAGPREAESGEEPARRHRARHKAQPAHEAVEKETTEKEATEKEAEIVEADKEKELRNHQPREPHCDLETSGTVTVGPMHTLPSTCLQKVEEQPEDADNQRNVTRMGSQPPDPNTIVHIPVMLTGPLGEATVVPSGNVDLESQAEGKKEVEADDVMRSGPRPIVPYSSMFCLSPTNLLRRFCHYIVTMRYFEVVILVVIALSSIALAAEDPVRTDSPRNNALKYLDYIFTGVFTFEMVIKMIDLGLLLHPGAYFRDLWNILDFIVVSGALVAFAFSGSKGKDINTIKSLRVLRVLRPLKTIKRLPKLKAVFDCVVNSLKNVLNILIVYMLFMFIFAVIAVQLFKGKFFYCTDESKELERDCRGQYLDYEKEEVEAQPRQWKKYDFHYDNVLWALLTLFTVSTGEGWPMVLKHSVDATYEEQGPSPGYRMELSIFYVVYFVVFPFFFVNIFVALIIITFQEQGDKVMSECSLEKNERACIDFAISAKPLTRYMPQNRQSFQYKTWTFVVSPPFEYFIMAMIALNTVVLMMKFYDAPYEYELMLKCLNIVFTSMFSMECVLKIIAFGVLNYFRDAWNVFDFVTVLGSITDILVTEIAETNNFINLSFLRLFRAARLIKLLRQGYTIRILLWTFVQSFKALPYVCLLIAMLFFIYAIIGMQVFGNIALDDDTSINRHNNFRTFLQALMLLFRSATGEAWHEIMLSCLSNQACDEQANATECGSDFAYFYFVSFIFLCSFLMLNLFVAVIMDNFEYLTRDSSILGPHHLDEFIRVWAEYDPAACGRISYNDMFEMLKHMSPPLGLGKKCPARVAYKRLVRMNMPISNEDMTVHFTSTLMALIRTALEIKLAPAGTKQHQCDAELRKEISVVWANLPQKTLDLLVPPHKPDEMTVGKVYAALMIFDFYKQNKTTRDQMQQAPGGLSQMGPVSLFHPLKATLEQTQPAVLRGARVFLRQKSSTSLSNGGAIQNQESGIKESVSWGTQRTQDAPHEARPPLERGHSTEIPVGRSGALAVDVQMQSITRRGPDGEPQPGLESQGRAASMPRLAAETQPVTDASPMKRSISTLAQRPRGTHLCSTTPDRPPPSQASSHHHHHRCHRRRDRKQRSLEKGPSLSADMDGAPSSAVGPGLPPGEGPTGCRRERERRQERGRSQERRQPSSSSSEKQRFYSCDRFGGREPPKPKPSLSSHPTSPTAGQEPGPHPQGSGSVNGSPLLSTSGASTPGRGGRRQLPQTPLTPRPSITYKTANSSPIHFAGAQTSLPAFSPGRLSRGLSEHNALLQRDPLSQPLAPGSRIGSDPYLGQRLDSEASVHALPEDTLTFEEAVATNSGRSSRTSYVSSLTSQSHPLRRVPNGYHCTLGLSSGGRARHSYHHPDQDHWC
Sequence (P54284 whole entry partner): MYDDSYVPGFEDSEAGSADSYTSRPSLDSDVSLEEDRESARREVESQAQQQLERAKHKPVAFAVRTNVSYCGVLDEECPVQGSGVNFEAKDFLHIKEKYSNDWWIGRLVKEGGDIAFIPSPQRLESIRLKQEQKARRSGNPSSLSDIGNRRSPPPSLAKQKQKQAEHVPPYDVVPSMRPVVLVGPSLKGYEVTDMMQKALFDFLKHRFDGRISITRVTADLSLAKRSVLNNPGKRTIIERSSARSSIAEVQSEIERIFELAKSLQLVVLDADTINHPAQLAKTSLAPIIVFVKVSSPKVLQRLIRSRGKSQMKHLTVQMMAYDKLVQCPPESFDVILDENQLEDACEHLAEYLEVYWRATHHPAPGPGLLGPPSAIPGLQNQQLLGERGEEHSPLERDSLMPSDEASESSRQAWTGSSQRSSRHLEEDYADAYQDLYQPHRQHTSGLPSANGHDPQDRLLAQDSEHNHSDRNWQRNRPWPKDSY
Sequence (P54289 25-946 partner limits assumed): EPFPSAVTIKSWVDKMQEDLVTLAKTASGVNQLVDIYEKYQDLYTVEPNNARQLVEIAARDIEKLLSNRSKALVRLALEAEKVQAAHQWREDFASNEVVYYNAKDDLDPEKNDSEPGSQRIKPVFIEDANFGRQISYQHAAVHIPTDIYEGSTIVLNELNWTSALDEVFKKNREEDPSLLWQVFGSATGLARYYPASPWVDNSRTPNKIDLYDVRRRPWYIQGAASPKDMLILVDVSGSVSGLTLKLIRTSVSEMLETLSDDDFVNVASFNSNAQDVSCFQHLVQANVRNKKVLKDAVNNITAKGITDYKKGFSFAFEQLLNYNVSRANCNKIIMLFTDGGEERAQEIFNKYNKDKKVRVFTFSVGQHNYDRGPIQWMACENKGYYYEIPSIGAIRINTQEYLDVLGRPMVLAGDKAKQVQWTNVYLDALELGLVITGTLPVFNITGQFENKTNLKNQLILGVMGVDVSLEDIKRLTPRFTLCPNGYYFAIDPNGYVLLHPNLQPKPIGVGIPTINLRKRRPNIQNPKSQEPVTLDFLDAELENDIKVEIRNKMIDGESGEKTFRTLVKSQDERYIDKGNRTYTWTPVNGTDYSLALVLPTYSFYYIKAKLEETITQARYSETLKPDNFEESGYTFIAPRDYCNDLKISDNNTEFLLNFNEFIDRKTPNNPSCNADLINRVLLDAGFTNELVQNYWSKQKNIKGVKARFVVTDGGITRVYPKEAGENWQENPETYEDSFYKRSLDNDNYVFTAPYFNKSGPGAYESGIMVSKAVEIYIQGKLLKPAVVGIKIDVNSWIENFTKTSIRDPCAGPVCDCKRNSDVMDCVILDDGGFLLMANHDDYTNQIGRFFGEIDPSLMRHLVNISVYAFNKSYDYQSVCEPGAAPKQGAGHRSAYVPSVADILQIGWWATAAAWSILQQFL
Sequence (P54289 947-1103 partner limits assumed): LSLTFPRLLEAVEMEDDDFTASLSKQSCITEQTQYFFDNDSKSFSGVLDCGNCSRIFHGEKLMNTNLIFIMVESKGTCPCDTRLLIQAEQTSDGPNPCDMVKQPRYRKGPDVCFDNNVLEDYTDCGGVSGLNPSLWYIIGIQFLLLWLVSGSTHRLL
Endpoint: inhibition at 0.25 µM (%)

Compound | Experimental Result
CCOc1ccccc1-n1nc2c(c1-c1ccc(Cl)cc1)CC(n1ccnc1)C2 (stereo not shown) [Compound 39] | 34
COc1ccccc1-n1nc2c(c1-c1ccc(Cl)cc1)CC(CNS(C)(=O)=O)C2 (stereo not shown) [Compound 8] | -9
COc1ccccc1-n1nc2c(c1-c1ccc(Cl)cc1)CC(CCOC(=O)N1CCOCC1)C2 (stereo not shown) [Compound 2] | 54
COc1ccccc1-n1nc2c(c1-c1ccc(Cl)cc1)CC(CCOC(=O)N(C)C)C2 (stereo not shown) [Compound 3] | 35
